species on record: Rattus norvegicus; experiment: Mechanoinhibitory activity was evaluated in KCl stimulated rat detrusor strip; type: functional
ATTRIBUTE_MEASURED: IC50 (µM)

Example results:
{"CHEMICAL_STRING": "CC1(C)Oc2ccc(C#N)cc2[C@H]2NC(=O)CO[C@@H]21", "ATTRIBUTE_MEASURED": "IC50", "VALUE": 53.1}
{"CHEMICAL_STRING": "CC(=O)N1CCO[C@H]2[C@H]1c1cc(C#N)ccc1OC2(C)C", "ATTRIBUTE_MEASURED": "IC50", "VALUE": 70.1}
{"CHEMICAL_STRING": "CCC(=O)N1CCO[C@H]2[C@H]1c1cc(C#N)ccc1OC2(C)C", "ATTRIBUTE_MEASURED": "IC50", "VALUE": 47.2}

A: CCC(=O)N1CCO[C@@H]2[C@H]1c1cc(C#N)ccc1OC2(C)C
B: CC(C)C(=O)N1CCO[C@H]2[C@H]1c1cc(C#N)ccc1OC2(C)C
Select the item with the higher value of IC50 from the options A and B listed. Response format: the label of the selected entry.
B

src = ChEMBL document CHEMBL1130761
